All values here come from patent US8912221B2.

This listing pairs compounds with measured pIC50.
# TESTED_SYSTEM: Bradykinin-1 receptor (Homo sapiens (Human), UniProt P46663)
# Sequence (P46663 whole entry): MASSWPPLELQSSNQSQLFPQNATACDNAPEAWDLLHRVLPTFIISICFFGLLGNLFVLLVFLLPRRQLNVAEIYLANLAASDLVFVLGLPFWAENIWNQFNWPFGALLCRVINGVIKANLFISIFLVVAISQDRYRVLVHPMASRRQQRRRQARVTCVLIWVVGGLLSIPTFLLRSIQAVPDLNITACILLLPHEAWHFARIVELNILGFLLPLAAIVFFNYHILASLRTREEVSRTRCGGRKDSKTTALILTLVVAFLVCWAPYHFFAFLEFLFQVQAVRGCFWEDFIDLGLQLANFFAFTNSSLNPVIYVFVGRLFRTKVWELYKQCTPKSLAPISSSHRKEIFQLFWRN
# TEST_SUMMARY: Calcium Mobilization Assay
# MEASUREMENT_SETUP: GeneBLAzer Bradykinin (B1)-NFAT-bla CHO-K1 cells; antagonist activity, FLIPR; read-out: Ca mobilization IC50
Lab note — pIC50 values are minus log10 of concentrations in M.

Study these solved cases before continuing.
{"SMILES_TEXT": "COCC(=O)NC1(C(=O)N[C@H](C)c2ncc(-c3cc(Cl)cc(Cl)c3OCC(F)F)cc2F)COC1", "pIC50": 6.70}
{"SMILES_TEXT": "COc1ncc(C(=O)NC2(C(=O)N[C@H](C)c3ccc(-c4cc(Cl)cc(Cl)c4OCC(F)F)cc3F)COC2)cn1", "pIC50": 9.52}
{"SMILES_TEXT": "Cc1nc(-c2c(F)cc(Cl)cc2-c2cnc([C@@H](C)NC(=O)C3(NC(=O)c4ccno4)COC3)c(F)c2)no1", "pIC50": 9.40}
{"SMILES_TEXT": "Cc1cc(C(=O)NC2(C(=O)N[C@H](C)c3ncc(-c4cc(Cl)cc(Cl)c4OCC(F)F)cc3F)COC2)on1", "pIC50": 8.96}
{"SMILES_TEXT": "C[C@@H](NC(=O)C1(NC(=O)C(F)(F)F)COC1)c1ncc(-c2cc(Cl)cc(F)c2-c2nnn(C)n2)cc1F", "pIC50": 9.00}

Recorded pIC50 for Cc1nc(-c2c(F)cc(Cl)cc2-c2cnc([C@@H](C)NC(=O)C3(NC(=O)c4cccnc4)COC3)c(F)c2)no1 , please?
9.70

Recorded pIC50 for COc1cc(C(=O)NC2(C(=O)N[C@H](C)c3ccc(-c4cc(Cl)cc(Cl)c4OCC(F)F)cc3F)COC2)on1 , please?
9.40

====

# TESTED_SYSTEM: Bradykinin-1 receptor (Homo sapiens (Human), UniProt P46663)
# TEST_SUMMARY: Calcium Mobilization Assay
# Assay type: cell-based
# MEASUREMENT_SETUP: GeneBLAzer Bradykinin (B1)-NFAT-bla CHO-K1 cells; antagonist activity, FLIPR; read-out: Ca mobilization IC50
VALUE_TYPE: IC50 (nM)
Form entry: value (nM) — number only.

Study these solved cases before continuing.
{"COMPOUND": "C[C@@H](NC(=O)C1(NC(=O)C(F)(F)F)COC1)c1ccc(-c2cc(Cl)cc(Cl)c2OCC(F)F)cc1F [Example 33]", "IC50 / nM": 5.3}
{"COMPOUND": "Cc1nnsc1C(=O)NC1(C(=O)N[C@H](C)c2ncc(-c3cc(Cl)cc(Cl)c3OCC(F)F)cc2F)COC1 [Example 41]", "IC50 / nM": 3.6}
{"COMPOUND": "COCC(=O)NC1(C(=O)N[C@H](C)c2ncc(-c3cc(Cl)cc(F)c3-c3noc(C)n3)cc2F)COC1 [Example 17]", "IC50 / nM": 26.6}
{"COMPOUND": "COc1cc(C(=O)NC2(C(=O)N[C@H](C)c3ncc(-c4cc(Cl)cc(F)c4-c4noc(C)n4)cc3F)COC2)on1 [Example 14]", "IC50 / nM": 0.2}
{"COMPOUND": "Cc1nc(-c2c(F)cc(Cl)cc2-c2cnc([C@@H](C)NC(=O)C3(NC(=O)c4cc(F)cc(C(F)(F)F)c4)COC3)c(F)c2)no1 [Example 1]", "IC50 / nM": 0.3}
{"COMPOUND": "C[C@@H](NC(=O)C1(NC(=O)c2ccno2)COC1)c1ccc(-c2cc(Cl)cc(Cl)c2OCC(F)F)cc1F [Example 32]", "IC50 / nM": 0.2}
{"COMPOUND": "COC(=O)c1c(Cl)cccc1-c1ccc([C@@H](C)NC(=O)C2(NC(=O)c3cc(C)no3)COC2)c(F)c1 [Example 13]", "IC50 / nM": 0.04}
{"COMPOUND": "Cc1nnc(C(=O)NC2(C(=O)N[C@H](C)c3ccc(-c4cc(Cl)cc(Cl)c4OCC(F)F)cc3F)COC2)o1 [Example 38]", "IC50 / nM": 0.6}
{"COMPOUND": "COc1ncc(C(=O)NC2(C(=O)N[C@H](C)c3ncc(-c4cc(Cl)cc(F)c4-c4noc(C)n4)cc3F)COC2)cn1 [Example 15]", "IC50 / nM": 0.1}
{"COMPOUND": "COc1ncc(C(=O)NC2(C(=O)N[C@H](C)c3ccc(-c4cc(Cl)cc(F)c4-c4nnn(C)n4)cc3F)COC2)cn1 [Example 44]", "IC50 / nM": 0.1}

Proceeding to the next compound to report its IC50.
For Bradykinin-1 receptor (Homo sapiens (Human), UniProt P46663), provide IC50 of COc1cc(C(=O)NC2(C(=O)N[C@H](C)c3ncc(-c4cc(Cl)cc(F)c4-c4nnn(C)n4)cc3F)COC2)on1 [Example 34] please.
0.4
